B1: DYRK1B (parent)
chain: KKVLNHGYDDDNHDYIVRSGERWL

variants of: B1; test: protein stability index of a GFP-peptide fusion (GPS, HEK-293T) (PSI 1-6); higher = more stable; details: c terminus: a fixed tail appended;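 note: lentivirally expressed fusions sorted by FACS into six bins by GFP to DsRed ratio, PSI derived from sequencing read proportions per bin multiplied by bin number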
Parameter protein stability index: see the listing below.

K1R
2.43
D14C
2.64
D10W
2.04

Next variant, protein stability index to be filled in.
# protein stability index (variant: `H13M` ) is 2.58
